target: UniProt Q8TDV5; experiment: cAMP accumulation assay (Cisbio cAMP Gs dynamic HTRF kit) in CHO-K1 cells stably expressing human GPR119; conditions: 60 minutes at 37° C., 4-parameter fit
Where a name gives a salt, the structure may show the parent alone.
measure-name: EC50

- compound: "O=C(Cc1ccc(OCCCC2CCN(c3ncc(Cl)cn3)CC2)cc1F)N1CCC2(CC1)CN(C(=O)CCCCS(=O)(=O)O)C2 [Example 22]"
  EC50: "100 to 1000 nM"

Report EC50 for each item below.
1. O=C(Cc1ccc(OCCCC2CCN(c3ncc(Cl)cn3)CC2)cc1F)N1CCC2(CCN(C[C@H](O)[C@@H](O)[C@H](O)[C@H](O)CO)C2)C1 (some centres unmarked) [Example 43]
2. O=C(Cc1ccc(OCCC2CCC23CCN(c2ncc(Cl)cn2)CC3)cc1F)N1CCN(C[C@H](O)[C@@H](O)[C@H](O)[C@H](O)CO)CC1 (some centres unmarked) [Example 113]
3. O=C(Cc1ccc(OCCCC2CCN(c3ncc(Cl)cn3)CC2)cc1F)N1CC2(C1)N(C(=O)CCCCS(=O)(=O)O)CC2(F)F [Example 19]
4. CC1(CCCCOc2ccc(CC(=O)N3CCN(C[C@H](O)[C@@H](O)[C@H](O)[C@H](O)CO)CC3)c(F)c2)CCN(c2ncc(Cl)cn2)CC1 [Example 107]
5. O=C(Cc1ccc(OCCCC2CCN(c3ncc(Cl)cn3)CC2)cc1F)N1CC2(CN(C[C@H](O)[C@@H](O)[C@H](O)[C@H](O)CO)C2)C1 [Example 26]

Reply:
1. ≤ 100 nM
2. > 10000 nM
3. ≤ 100 nM
4. 100 to 1000 nM
5. ≤ 100 nM

Report EC50 for each item below.
1. O=C(Cc1c(F)cc(OCCCC2CCN(c3ncc(Cl)cn3)CC2)cc1F)N1CCN(C[C@H](O)[C@@H](O)[C@H](O)[C@H](O)CO)CC1 [Example 85, formate]
2. O=C(Cc1ccc(OCCCC2CCN(c3ncc(Cl)cn3)CC2)cc1F)N1CCN(C[C@H](O)[C@@H](O)[C@H](O)[C@H](O)CO)CC1 [Example 27]
3. O=C(Cc1ccc(OCCCC2CCN(c3ncc(Cl)cn3)CC2)cc1F)N1CCC2(CC1)CN(C[C@H](O)[C@H](O)[C@H](O)CO)C2 [Example 69]
4. O=C(Cc1ccc(OCC2CC(C3CCN(c4ncc(Cl)cn4)CC3)C2)cc1F)N1CCN(C[C@H](O)[C@@H](O)[C@H](O)[C@H](O)CO)CC1 (some centres unmarked) [Example 114]
5. O=C(Cc1ccc(OCCCC2CCN(c3ncc(Cl)cn3)CC2)cc1F)N1CC2(CCCN2C[C@H](O)[C@@H](O)[C@H](O)[C@H](O)CO)C1 [Example 61]

Reply:
["≤ 100 nM", "≤ 100 nM", "100 to 1000 nM", "≤ 100 nM", "≤ 100 nM"]

###

Target: human GPR119 (hGPR119) (Homo sapiens, UniProt Q8TDV5)
Sequence (Q8TDV5 1-335): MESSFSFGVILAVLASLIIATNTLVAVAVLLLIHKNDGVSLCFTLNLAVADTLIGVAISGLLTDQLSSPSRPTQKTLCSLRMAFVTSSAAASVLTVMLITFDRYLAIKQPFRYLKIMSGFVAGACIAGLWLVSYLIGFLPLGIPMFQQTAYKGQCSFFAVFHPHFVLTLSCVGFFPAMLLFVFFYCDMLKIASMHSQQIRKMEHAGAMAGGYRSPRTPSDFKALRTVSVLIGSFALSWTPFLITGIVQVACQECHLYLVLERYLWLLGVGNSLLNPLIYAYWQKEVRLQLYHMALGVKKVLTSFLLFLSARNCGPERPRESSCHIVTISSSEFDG
Test: cAMP accumulation assay (Cisbio cAMP Gs dynamic HTRF kit) in CHO-K1 cells stably expressing human GPR119
Details: 60 minutes at 37° C., 4-parameter fit
measure-name: EC50

# annotated cases, reported EC50 shown
- molecule: "O=C(Cc1ccc(OCCCC2CC23CCN(c2ncc(Cl)cn2)CC3)cc1F)N1CCN(C[C@H](O)[C@@H](O)[C@H](O)[C@H](O)CO)CC1 (stereo partly drawn) [Example 109]"
  EC50: "100 to 1000 nM"
- molecule: "O=C(Cc1ccc(OCCCC2CCN(c3ncc(Cl)cn3)CC2)cc1F)N1CC2(CCCN2C(=O)CCCCS(=O)(=O)O)C1 [Example 18]"
  EC50: "≤ 100 nM"

Task item: What does the record list as EC50 for O=C(Cc1ccc(OCCCC2CCN(c3ncc(Cl)cn3)CC2)cc1F)N1CCCN(C[C@H](O)[C@@H](O)[C@H](O)[C@H](O)CO)CC1 [Example 51] ?
Reply: ≤ 100 nM

###

molecular target: human GPR119 (hGPR119) (Homo sapiens); test: cAMP accumulation assay (Cisbio cAMP Gs dynamic HTRF kit) in CHO-K1 cells stably expressing human GPR119; settings: 60 minutes at 37° C., 4-parameter fit
pEC50: −log10 of the molar value.
Would you kindly list pEC50 for each of these compounds?

# annotated cases, reported pEC50 shown
- mol-smiles: "O=C(Cc1ccc(OCCCC2CCN(c3ncc(Cl)cn3)CC2)cc1F)N1CCC2(CN(C[C@H](O)[C@@H](O)[C@H](O)[C@H](O)CO)C2)C1"
  pEC50: "≥ 7.00"
- mol-smiles: "O=C(CCCCS(=O)(=O)O)N1CC2(C1)CN(C(=O)Cc1ccc(OCCCC3CCN(c4ncc(Cl)cn4)CC3)cc1F)C2"
  pEC50: "≥ 7.00"

Query compound follows.
Task item: What does the record list as pEC50 for `O=C(Cc1ccc(OCCCC2CCN(c3ncc(Cl)cn3)CC2)cc1F)N1C2CC1CN(C[C@H](O)[C@H](O)[C@H](O)CO)C2` ?
Reply: ≥ 7.00

###

Would you kindly list Emax for each of these compounds?
Target: human GPR119 (hGPR119) (Homo sapiens)
Construct: expressed in transfected cells
Sequence (Q8TDV5 1-335): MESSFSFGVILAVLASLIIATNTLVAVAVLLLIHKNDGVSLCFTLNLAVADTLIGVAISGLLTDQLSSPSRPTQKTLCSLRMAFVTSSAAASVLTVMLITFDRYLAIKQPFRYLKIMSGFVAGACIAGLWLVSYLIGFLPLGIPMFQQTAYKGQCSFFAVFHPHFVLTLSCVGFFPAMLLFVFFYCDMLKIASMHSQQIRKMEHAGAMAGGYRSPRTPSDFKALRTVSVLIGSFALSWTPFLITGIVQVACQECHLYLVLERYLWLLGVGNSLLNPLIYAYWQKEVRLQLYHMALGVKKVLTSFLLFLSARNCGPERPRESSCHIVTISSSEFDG
Test: cAMP accumulation assay (Cisbio cAMP Gs dynamic HTRF kit) in CHO-K1 cells stably expressing human GPR119
Format: cell-based
Details: 1 h, % activity normalized to Max and Min controls, 4-parameter fit
Where a name gives a salt, the structure may show the parent alone.

- compound: "O=C(Cc1ccc(OCCCC2CCN(c3ncc(Cl)cn3)CC2)c(F)c1)N1CCN(C[C@H](O)[C@@H](O)[C@H](O)[C@H](O)CO)CC1 [Example 91]"
  Emax: "100 to 130%"
- compound: "O=C(Cc1ccc(OCCCC2CCN(c3ncc(Cl)cn3)CC2)cc1F)N1CCN(C[C@H](O)[C@@H](O)[C@H](O)[C@H](O)CO)C2CC21 (stereo partly shown) [Example 59]"
  Emax: "100 to 130%"
- compound: "O=C(Cc1ccc(OCCCC2CCN(c3ncc(Cl)cn3)CC2)cc1F)N1CCC2(CCCN2C[C@H](O)[C@H](O)[C@H](O)CO)C1 (stereo partly shown) [Example 74]"
  Emax: "≥ 130%"
- compound: "O=C(Cc1ccc(OCCCC2CCN(c3ncc(Cl)cn3)CC2)cc1F)N1C[C@H]2CN(C(=O)CCCCS(=O)(=O)O)[C@H]2C1 [Example 7]"
  Emax: "100 to 130%"
- compound: "O=C(CCCCS(=O)(=O)O)N1C[C@@H]2C[C@H]1CN2C(=O)Cc1ccc(OCCCC2CCN(c3ncc(Cl)cn3)CC2)cc1F [Example 15]"
  Emax: "100 to 130%"

Report Emax for each item below.
1. O=C(CCCCS(=O)(=O)O)N1C[C@@H]2CN(C(=O)Cc3ccc(OCCCC4CCN(c5ncc(Cl)cn5)CC4)cc3F)C[C@@H]2C1 [Example 10]
2. O=C(Cc1ccc(OCCCC2CCN(c3ncc(Cl)cn3)CC2)cc1F)N1CC2CC(C1)N2C[C@H](O)[C@@H](O)[C@H](O)[C@H](O)CO [Example 49]
3. O=C(CCCCS(=O)(=O)O)N1C[C@H]2CN(C(=O)Cc3ccc(OCCCC4CCN(c5ncc(Cl)cn5)CC4)cc3F)[C@H]2C1 [Example 8]
4. O=C(Cc1ccc(OCCCC2CCN(c3ncc(Cl)cn3)CC2)cc1F)N1CCC2(CN(C[C@H](O)[C@@H](O)[C@H](O)[C@H](O)CO)CCO2)C1 (stereo partly shown) [Example 73]
5. O=C(Cc1ccc(OCCCC2CCN(c3ncc(Cl)cn3)CC2)cc1F)N1CC2(CN(C[C@H](O)[C@H](O)[C@H](O)CO)C2)C1 [Example 25, formate]
6. O=C(Cc1ccc(OCCCC2CCN(c3ncc(Cl)cn3)CC2)cc1F)N1CC2(CCC2NC[C@H](O)[C@@H](O)[C@H](O)[C@H](O)CO)C1 (stereo in doubt) [Example 79]

Reply:
1. 100 to 130%
2. 100 to 130%
3. 100 to 130%
4. 100 to 130%
5. 50 to 100%
6. ≥ 130%

Report Emax for each item below.
1. O=C(Cc1ccc(OCCCC2CCN(c3ncc(Cl)cn3)CC2)cc1F)N1C[C@@H]2CCN(C[C@H](O)[C@@H](O)[C@H](O)[C@H](O)CO)[C@@H]2C1 [Example 35]
2. COCc1cnc(N2CCC(CCCCOc3cc(F)c(CC(=O)N4CCN(C[C@H](O)[C@@H](O)[C@H](O)[C@H](O)CO)CC4)c(F)c3)CC2)nc1 [Example 101]

Reply:
1: 100 to 130%; 2: 100 to 130%

Origin of the recorded values: patent US20240217983A1
